# Tested on: HeLa
# assayInfo: Evaluation for antiviral activity against polio virus-1 in HeLa cell cultures (Concentration required to reduce virus-induced cytopathogenicity by 50%)
# Type: functional
# assaySetup: Homo sapiens

{"compound": "Nc1nccc2c1ncn2[C@@H]1C[C@H](CO)[C@@H](O)[C@H]1O", "boundSign": ">", "MIC, µg/mL": 400}
{"compound": "c1ccc2c3c([nH]c2c1)C1CCSCON1CC3 (stereo not given)", "boundSign": ">", "MIC, µg/mL": 10}
{"compound": "N[C@@H]1CSCON2CCc3c([nH]c4ccccc34)[C@@H]12", "boundSign": ">", "MIC, µg/mL": 10}
{"compound": "COc1ccc2[nH]c3c(c2c1)CCN1OCSC[C@@H](N)[C@@H]31", "boundSign": "=", "MIC, µg/mL": 0.02}
{"compound": "Cn1c2c(c3ccccc31)CCN1OCSC[C@@H](N)[C@@H]21", "boundSign": "=", "MIC, µg/mL": 2}
